The measured values listed here are drawn from FireProtDB (doi:10.1093/protein/14.12.967).

B1: Lysozyme C, milk isozyme, P81708 (parent)
chain: KIFSKCELARKLKSMGMDGFHGYSLANWVCMAEYESNFNTQAFNGRNSNGSSDYGIFQLNSKWWCKSNSHSSANACNIMCSKFLDDNIDDDIACAKRVVKDPNGMSAWVAWVKHCKGKDLSKYLASCNL

Variants of: B1
Settings: Canis lupus familiaris; pH 4.5; 66.4 °C; Thermal; DSC; sodium acetate 50 mM; reversible: yes; structure 1EL1; whole UniProt chain shown
readout type: ddG of mutation (higher = less stable) (kcal/mol)

{"change": "V109K", "value reported": 0.43}
{"change": "H21G", "value reported": 0.48}
{"change": "A93S", "value reported": 0.26}
{"change": "I56L", "value reported": 0.24}
